# protocol.notes: Cellular toxicity assay, Huh-7 cells
# Format: cell-based
# applied.conditions: human, compared to cycloheximide (+ control)
# Experimental: The toxicity of the compounds was assessed in human PBM, CEM (human lymphoblastoid), and Huh-7 cells, as described previously (see Schinazi R. F., Sommadossi J.-P., Saalmann V., Cannon D. L., Xie M.-Y., Hart G. C., Smith G. A. & Hahn E. F. Antimicrob. Agents Chemother. 1990, 34, 1061-67). Cycloheximide was included as positive cytotoxic control, and untreated cells exposed to solvent were included as negative controls. […]
readout.name: CC50 (µM)
The figure you give is taken to be in µM; do not add the unit.

For the molecule shown here, `O=C1Nc2cc(C(=O)N3CCC(Cc4ccccc4)CC3)ccc2Nc2ccccc21` , give the reported CC50.
10.4
